assay: chemical genetic growth profiling, strain panel (AID 1159580);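 note: tested at 20 µM; growth read once vehicle control cultures reached saturation at 30 °C; 1 = growth at the plate median or of vehicle wells; lower values mean less growth of the strain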; conditions: S. cerevisiae deletion strains, growth OD, locus YKL068W, active compounds read low
In all, about 5,500 compounds went through this assay and about 2,000 (36%) were called active. About 18% were inconclusive and are not listed. Some of the results follow.
assay-metric: normalized growth
// response body must contain only the number

compound=O=C(O)c1ccccc1O observed_measurement=0.982
compound="C/C=C/CC(C)C(O)C1C(=O)NC(CC)C(=O)N(C)CC(=O)N(C)C(CC(C)C)C(=O)NC(C(C)C)C(=O)N(C)C(CC(C)C)C(=O)NC(C)C(=O)NC(C)C(=O)N(C)C(CC(C)C)C(=O)N(C)C(CC(C)C)C(=O)N(C)C(C(C)C)C(=O)N1C (configuration not stated)" observed_measurement=1
compound=CC1(C)[C@@H]2CC[C@@]1(C)C(=O)C2 observed_measurement=0.992
compound=CC1(C)S[C@@H]2[C@H](NC(=O)[C@@H](N)c3ccc(O)cc3)C(=O)N2[C@H]1C(=O)O observed_measurement=1
compound="CO[C@@H]1C[C@H](O[C@H]2CC[C@]3(C)C4CC[C@]5(C)[C@@H](C6=CC(=O)OC6)CC[C@]5(O)[C@@H]4CC[C@]3(O)C2)O[C@H](C)[C@@H]1O (some centres not stated)" observed_measurement=0.996

-- ask Recorded normalized growth of NCC(O)CC(=O)O (configuration not stated) , please.
-- reply 0.999

-- ask Recorded normalized growth of NCCCCN , please.
-- reply 0.999
